Sourced from the supplement of paper PMC7840683

Test system: HepaRG
ASSAY_EXPLANATION: LDH release cytotoxicity, % of total lysis control; higher = more cytotoxic
TEST_PARAMETERS: 0.03162 µM; 48 h
Structures can show the parent of a compound that is named as a salt.
READOUT_KIND: LDH release cytotoxicity (%)
One number for each entry, in %.

Would you please look over these solved cases?
• O=C(Oc1ccc(Br)cc1)N1CCN2CCC1CC2 = -1.87
• N#Cc1ccc(N(CC(N)=O)CC(F)(F)F)cc1C(F)(F)F = -0.784
• CCCCCCCCCCCCCCOS(=O)(=O)O [Sodium myristyl sulfate] = -2.12

Batch lookup, LDH release cytotoxicity per entry.
1. C[C@](N)(Cc1ccc(O)c(O)c1)C(=O)O [Methyldopa sesquihydrate]
2. CCCC1COC(Cn2cncn2)(c2ccc(Cl)cc2Cl)O1 (configuration not stated) [Propiconazole]

1: -0.769; 2: -1.15

Would you be so kind as to report LDH release cytotoxicity for each listed record?
1. CCOCCOCCO [2-(2-Ethoxyethoxy)ethanol]
2. COc1ccc(S(=O)(=O)N2C(=O)C(c3ccccc3OC)(N3CC(O)CC3C(=O)N(C)C)c3cc(Cl)ccc32)c(OC)c1 (configuration not stated) [Nelivaptan]
3. CCC(=O)Nc1ccc(Cl)c(Cl)c1 [Propanil]
4. CC12CCC3c4ccc(O)cc4CC(CCCCCCCCCS(=O)CCCC(F)(F)C(F)(F)F)C3C1CCC2O (configuration not stated) [Fulvestrant]
5. O=C1c2c(O)cccc2Cc2cccc(O)c21 [Anthralin]

1: 0.116; 2: -0.817; 3: -0.963; 4: -1.87; 5: -2.38

Would you mind giving LDH release cytotoxicity for every compound in the list below?
1. C=CC(=O)NCNC(=O)C=C [N,N'-Methylenebisacrylamide]
2. O=C(NC(c1ccccc1)C1CCCCN1)c1cccc(C(F)(F)F)c1Cl (configuration not stated)

1. -0.744
2. -1.29

Hey, quick one: what's LDH release cytotoxicity for each of these?
1. CCCCOCCOCCO [2-(2-Butoxyethoxy)ethanol]
2. c1ccc(C(OC2CCCN(CCc3ccc4c(c3)OCO4)C2)c2ccccc2)cc1 (configuration not stated) [Zamifenacin]
3. CNCc1cc(F)ccc1Oc1ccc(Cl)c(Cl)c1

1: -0.987; 2: -1.02; 3: -11

For each of the items listed, what is its LDH release cytotoxicity?
1. Cc1cc(C)cc(C)c1 [1,3,5-Trimethylbenzene]
2. ClC1=C(Cl)C2(Cl)C3C4CC(C5OC45)C3C1(Cl)C2(Cl)Cl (configuration not stated) [Dieldrin]
3. C1CCC(SSC2CCCCC2)CC1 [Dicyclohexyl disulfide]
4. CC(C)(C)c1cc(C(C)(C)C)c(O)c(C(C)(C)C)c1 [2,4,6-Tris(tert-butyl)phenol]
5. Nc1nc(N)c2nc(CNc3ccc(C(=O)NC(CCC(=O)O)C(=O)O)cc3)cnc2n1 (configuration not stated) [Aminopterin]
6. CC(C)(OO)c1ccccc1 [Cumene hydroperoxide]

1. -1.84
2. -0.556
3. -0.985
4. -0.34
5. -11.8
6. -1.39

// input: 5 compounds below; output: LDH release cytotoxicity for each
1. Cc1cc(SC2C(=O)CC(CCc3ccc(N)cc3)(C(C)C)OC2=O)c(C(C)(C)C)cc1CO (configuration not stated) [CI-1029]
2. O=C(O)CCCOc1ccc(Cl)cc1Cl [2,4-Dichlorophenoxybutyric acid]
3. CCCCC(CC)COC(=O)c1ccc(C(=O)OCC(CC)CCCC)cc1 (configuration not stated) [Bis(2-ethylhexyl) terephthalate]
4. COC(=O)c1ccc(I)cc1S(=O)(=O)NC(=O)Nc1nc(C)nc(OC)n1 [Iodosulfuron-methyl-sodium]
5. CC(=O)OCC(COC(C)=O)OC(C)=O [Triacetin]

1. -0.634
2. -2.25
3. -2
4. -1.49
5. -0.962

Provide LDH release cytotoxicity for all items below, preserving their order.
1. CCCCCCCCCCCCc1ccccc1S(=O)(=O)O [Sodium dodecylbenzenesulfonate]
2. CCOc1cc(Oc2ccc(C(F)(F)F)cc2Cl)ccc1[N+](=O)[O-] [Oxyfluorfen]
3. OC1CCCCC1 [Cyclohexanol]
4. CC1=C(C(=O)Nc2ccccc2)SCCO1 [Carboxin]

1: -1.64; 2: -0.516; 3: -1.14; 4: -0.0118

Okay, here is my list. What is LDH release cytotoxicity for each of these?
1. Cc1oc(-c2ccccc2)nc1CCOc1ccc(CC(Nc2ccccc2C(=O)c2ccccc2)C(=O)O)cc1 (configuration not stated) [Farglitazar]
2. CC(C)(O)c1ccc(CNC(=O)c2cccnc2Oc2ccc3nonc3c2)cc1
3. O=C1CN(N=Cc2ccc([N+](=O)[O-])o2)C(=O)N1 [Nitrofurantoin]
4. Oc1cc(Cl)c(Cl)cc1Cl [2,4,5-Trichlorophenol]
5. Cc1ccc([N+](=O)[O-])cc1N [5-Nitro-o-toluidine]
6. Cn1c(=O)cc(Oc2ccc(F)cc2F)c2cnc(NCC(C)(C)O)nc21
7. O=C(NC1CN2CCC1CC2)c1ccc2c(c1)OCCO2 (configuration not stated)

[-1.27, -0.138, -0.977, -1.03, -0.782, -1.61, -2.41]
